target: T1, TPP-2305, hTNFRSF12 amino acids a28-80 (recombinant human TWEAKR protein) (human, UniProt Q9NP84 28-80); assay: SPR (Biacore T100), antibody captured, TWEAKR TPP-2305 as analyte, 1:1 model
T1 construct: Soluble monomeric antigen, injected as analyte over the captured antibodies; Bought protein
measurementKind: koff

# binder, measValue
measured = [
    ("TPP-2090 (antibody, human IgG1, kappa, V domains shown, human IgG1; also called anti-TWEAKR AK-1) VH: EVQLLESGGGLVQPGGSLRLSCAASGFTFSPYPMIWVRQAPGKGLEWVSYISPSGGSTHYADSVKGRFTISRDNSKNTLYLQMNSLRAEDTAVYYCARGGDTYFDYFDYWGQGTLVTVSS VL: DIQMTQSPSSLSASVGDRVTITCRASQSISGYLNWYQQKPGKAPKLLIYQASSLQSGVPSRFSGSGSGTDFTLTISSLQPEDFATYYCQQSYTSPFITFGQGTKVEIKR", "0.11 s⁻¹"),
]
